- Experimental System: T1, T4 (Tn-MUC1) (PAPGSTAPPAHGVT(α-GalNAc)SAPDTRPAPG-OH)
- T1 peptide: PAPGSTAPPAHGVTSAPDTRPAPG
- Assay Details: glycopeptide array
Readout Label: EC50 (µg/mL)
The reply should contain only the number, in µg/mL.

Problem: Returns the measured EC50 for the input binder. Input: 66 (antibody, V domains shown) VH: QVQLVQSGAEVKKPGASVRVSCKASGYTFTNYYIHWVRQAPGHGLTWMGVINPFDSSTDYAQKFQGRVTMTRDTSTSTVYMDLSSLRSEDTAVYYCARDYMRGHVVFDYWGQGTLVTVSS
Solution: 0.11

Problem: Returns the measured EC50 for the input binder. Input: 102 (antibody, V domains shown) VH: QVQLVQSGAEVKKSGASVKVSCKASGYPFISYYIHWLRQAPGQGLTWMGVINPFDGSTDYAQKFQGRVTVTRDTSTSTVYMDLSSLRADDTAIYYCARDYMRGYVVFDYWGQGTLVTVSS
Solution: 0.087

Problem: Returns the measured EC50 for the input binder. Input: 170 (antibody, V domains shown) VH: QVQLVQSGAEVKKPGASVQVSCKASGYTFINYYLQWVRQAPGQGLEWMGTINPFDGSTHYAQKFQGRVTMTRDTSTNTVYMELNSLRSEDTAVYYCARDRMIGYVLFDYWGQGTLVTVSS
Solution: 0.116

Problem: Returns the measured EC50 for the input binder. Input: 130 (antibody, V domains shown) VH: QVQLVQSGAEVKKPGASVRVSCKASGYTFINYYLQWVRQAPGQGLEWMGTINPFDGSTHYAQKFQGRVTLTRDTSTSTVYMELNSLRSDDTAVYYCARDYMIGYVLFDYWGQGTLVTVSS
Solution: 0.125

Problem: Returns the measured EC50 for the input binder. Input: 49 (antibody, V domains shown) VH: QVQLVESGAEVKKPGASVKVSCKASGYTFTRYYLHWVRQAPGQGLEWMGVINPYGGATNYAQKFQGRVTLTRDTSTSTVYMELNSLRSEDTAVYFCARDAMEGNSYFDHWGPGTLVTVSS
Solution: 0.102

Origin of measurements: patent US20230250190A1
